EC50 values by entry
biological target: UniProt P97438; assay: Modulation of TREK-1 by select compounds (agonist activity), Table 3; conditions: agonist activity on TREK-1
Sequence (P97438 1-411 isoform P97438-2): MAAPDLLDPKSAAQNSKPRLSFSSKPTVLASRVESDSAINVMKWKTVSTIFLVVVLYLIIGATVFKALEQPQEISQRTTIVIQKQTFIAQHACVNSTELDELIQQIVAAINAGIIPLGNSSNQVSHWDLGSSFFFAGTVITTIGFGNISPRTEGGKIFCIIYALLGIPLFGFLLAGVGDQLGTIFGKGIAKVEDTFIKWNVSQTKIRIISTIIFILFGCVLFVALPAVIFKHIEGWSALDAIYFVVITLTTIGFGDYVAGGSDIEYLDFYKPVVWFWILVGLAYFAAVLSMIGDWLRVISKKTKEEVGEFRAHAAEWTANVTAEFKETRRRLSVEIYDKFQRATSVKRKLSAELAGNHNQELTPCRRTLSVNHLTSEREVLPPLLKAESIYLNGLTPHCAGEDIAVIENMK

Guide cases for EC50, answers given:
Clc1ccc2c(c1)c1cc(Cl)ccc1n2CCc1nnn[nH]1; 125 µM
Clc1ccc2c(c1)C1(CCCCC1)c1cc(Cl)ccc1N2CCc1nnn[nH]1; 8.6 µM
C#Cc1ccc(S(=O)(=O)NC(=O)CCN2c3ccc(Br)cc3C3(CCCCC3)c3cc(Br)ccc32)cc1; > 38.5 µM
CC1(C)c2ccccc2N(CCc2nnn[nH]2)c2ccccc21; > 38.5 µM
O=C(O)CCN1c2ccc(Cl)cc2Sc2cc(Cl)ccc21; ~200 µM
Clc1ccc2c(c1)C1(CCOCC1)c1cc(Cl)ccc1N2CCc1nnn[nH]1; > 38.5 µM
Brc1ccc2c(c1)Oc1cc(Br)ccc1N2CCc1nnn[nH]1; > 38.5 µM
O=C(O)CCn1c2ccccc2c2cc(I)ccc21; > 500 µM
Brc1ccc2c(c1)Sc1cc(Br)ccc1N2CCc1nnn[nH]1; > 38.5 µM
Clc1ccc2c(c1)C1(CCCCC1)c1cccc(Cl)c1N2CCc1nnn[nH]1; 8.6 to 38.5 µM

input: Consider the compound shown here: `c1ccc2c(c1)Oc1ccccc1N2CCc1nnn[nH]1` What is its recorded EC50?
output: > 38.5 µM

input: Field entry: `c1ccc2c(c1)Sc1ccccc1N2CCc1nnn[nH]1`
output: > 38.5 µM

input: Field entry: `O=C(O)CCN1c2ccc(Br)cc2C2(CCCCC2)c2cc(Br)ccc21`
output: > 38.5 µM

input: Field entry: `CS(=O)(=O)NC(=O)CCN1c2ccc(Br)cc2C2(CCCCC2)c2cc(Br)ccc21`
output: 8.6 to 38.5 µM

input: Field entry: `OCc1ccc2c(c1)C1(CCCCC1)c1cc(Br)ccc1N2CCc1nnn[nH]1`
output: > 38.5 µM

input: Field entry: `Clc1ccc2c(c1)C1(CCCC1)c1cc(Cl)ccc1N2CCc1nnn[nH]1`
output: 18.3 µM

input: Field entry: `O=C(O)CCN1c2ccc(Cl)cc2C2(CCCCC2)c2cccc(Cl)c21`
output: > 38.5 µM

input: Field entry: `O=C(O)CCn1c2ccc(Cl)cc2c2cc(Cl)ccc21`
output: 213 µM
